- target_entity: Bcl-xL, Q07817
- Sequence (Q07817 1-209): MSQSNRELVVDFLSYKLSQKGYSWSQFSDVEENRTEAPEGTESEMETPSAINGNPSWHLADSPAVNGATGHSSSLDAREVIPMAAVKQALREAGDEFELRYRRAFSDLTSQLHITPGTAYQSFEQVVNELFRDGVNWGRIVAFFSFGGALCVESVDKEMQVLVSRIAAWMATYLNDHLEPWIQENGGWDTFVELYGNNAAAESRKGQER
- measurement_notes: peptide SPOT array, c-Myc-tagged receptor at 1 uM or 100 nM, anti-c-Myc-Cy3
result_type: SPOT signal as a fraction of Bim BH3's signal on the same receptor and array

YNLKSPAVKRLMKEAAELKDPTDHYH [UBE2J1]
0.19
VYILRKAARRLAQVLRAAGVRVGLLS [CACNA1G]
0.67
LTETSLISGNLHRILDITSCSVLWLN [FBXW5]
0.06
RLRQLGVAKKFGVLLDNFKGKRIVLV [PPAT]
1.27
ISSLDLLPYGDRYIAKVLKNSIHEKF [IQGAP2]
0.64

The recorded SPOT signal as a fraction of Bim BH3's signal on the same receptor and array for SDIRDDISEQVRHVLRTVRGHPRKKL [TMEM184C] is 0.88

In plain terms, PVESSWIAPELRLQSDDILPLGKDSG [DHX30] has a documented SPOT signal as a fraction of Bim BH3's signal on the same receptor and array of 0.05

The measurements presented in this section are drawn from paper PMC4072508.
